B1: LINE1-full (parent)
chain: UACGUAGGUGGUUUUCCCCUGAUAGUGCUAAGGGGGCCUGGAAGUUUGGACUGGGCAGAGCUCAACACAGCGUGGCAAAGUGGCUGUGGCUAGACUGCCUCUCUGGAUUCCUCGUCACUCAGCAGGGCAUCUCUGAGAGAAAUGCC

Variants of: B1
Assay: self-cleavage, relative activity (ratio to wild type); higher = more cleavage; in vitro, sequencing; the parent is a self-cleaving ribozyme
Use 1 as the dividing line for self-cleavage, with the line itself on the YES side and lower values as NO.

Query string: Given A79G U132G , state whether its self-cleavage is at least 1.
Result string: NO

Query string: Item: U15C G49U
Result string: NO

Query string: Item: U112C C116G
Result string: YES

Query string: Item: U14A G55U
Result string: NO

Query string: Item: U52A U132A
Result string: YES

Query string: Item: A50G U85A
Result string: NO

Query string: Item: U91A U134C
Result string: NO

Query string: Item: A65C A140G
Result string: NO

Query string: Item: U14A U100A
Result string: NO

Query string: Item: G82A U91C
Result string: NO

Query string: Item: U12G G36A
Result string: NO

Query string: Item: A43G A138U
Result string: YES

Query string: Item: A79G C145U
Result string: YES

Query string: Item: A30U U102A
Result string: NO

Query string: Item: A64U U100C
Result string: NO

Query string: Item: U109C U112A
Result string: YES

Query string: Item: A2G A50G
Result string: NO

Query string: Item: U87C U109A
Result string: NO

Query string: Item: C19U U81A
Result string: YES

Query string: Item: U46A U81C
Result string: YES

Query string: Item: U13G C113A
Result string: YES

Query string: Item: G33U A57G
Result string: NO

Query string: Item: U5C G25A
Result string: YES

Query string: Item: C37A U100C
Result string: YES

Query string: Item: C120A A121G
Result string: YES

Query string: Item: U26C C146U
Result string: YES

Query string: Item: G7A A129C
Result string: YES

Query string: Item: U12C C120U
Result string: YES

Query string: Item: U46A U112A
Result string: YES

Query string: Item: U62C A124U
Result string: NO

Query string: Item: C103U A138U
Result string: YES

Query string: Item: G89A U91C
Result string: NO

Query string: Item: G72U U115C
Result string: YES

Query string: Item: U100A A142U
Result string: NO

Query string: Item: A50U A136U
Result string: YES

Query string: Item: U52G G72A
Result string: NO

Query string: Item: G4U U119C
Result string: YES

Query string: Item: U26A U115A
Result string: YES

# credit: the RNAGym collection of RNA variant scans (doi:10.7554/elife.90254)
